System: aldehyde oxidase (AOX)
Assay: Metabolism kinetics of DACA and phthalazine in rabbit cytosol
Conditions: New Zealand, rabbit, cytosol
parameter-measured: Km (µM)

{"structure-as-smiles": "c1ccc2cnncc2c1", "reported-value": 23}

###

Target: aldehyde oxidase (AOX) (Homo sapiens, UniProt Q06278)
Sequence (Q06278 1-1338): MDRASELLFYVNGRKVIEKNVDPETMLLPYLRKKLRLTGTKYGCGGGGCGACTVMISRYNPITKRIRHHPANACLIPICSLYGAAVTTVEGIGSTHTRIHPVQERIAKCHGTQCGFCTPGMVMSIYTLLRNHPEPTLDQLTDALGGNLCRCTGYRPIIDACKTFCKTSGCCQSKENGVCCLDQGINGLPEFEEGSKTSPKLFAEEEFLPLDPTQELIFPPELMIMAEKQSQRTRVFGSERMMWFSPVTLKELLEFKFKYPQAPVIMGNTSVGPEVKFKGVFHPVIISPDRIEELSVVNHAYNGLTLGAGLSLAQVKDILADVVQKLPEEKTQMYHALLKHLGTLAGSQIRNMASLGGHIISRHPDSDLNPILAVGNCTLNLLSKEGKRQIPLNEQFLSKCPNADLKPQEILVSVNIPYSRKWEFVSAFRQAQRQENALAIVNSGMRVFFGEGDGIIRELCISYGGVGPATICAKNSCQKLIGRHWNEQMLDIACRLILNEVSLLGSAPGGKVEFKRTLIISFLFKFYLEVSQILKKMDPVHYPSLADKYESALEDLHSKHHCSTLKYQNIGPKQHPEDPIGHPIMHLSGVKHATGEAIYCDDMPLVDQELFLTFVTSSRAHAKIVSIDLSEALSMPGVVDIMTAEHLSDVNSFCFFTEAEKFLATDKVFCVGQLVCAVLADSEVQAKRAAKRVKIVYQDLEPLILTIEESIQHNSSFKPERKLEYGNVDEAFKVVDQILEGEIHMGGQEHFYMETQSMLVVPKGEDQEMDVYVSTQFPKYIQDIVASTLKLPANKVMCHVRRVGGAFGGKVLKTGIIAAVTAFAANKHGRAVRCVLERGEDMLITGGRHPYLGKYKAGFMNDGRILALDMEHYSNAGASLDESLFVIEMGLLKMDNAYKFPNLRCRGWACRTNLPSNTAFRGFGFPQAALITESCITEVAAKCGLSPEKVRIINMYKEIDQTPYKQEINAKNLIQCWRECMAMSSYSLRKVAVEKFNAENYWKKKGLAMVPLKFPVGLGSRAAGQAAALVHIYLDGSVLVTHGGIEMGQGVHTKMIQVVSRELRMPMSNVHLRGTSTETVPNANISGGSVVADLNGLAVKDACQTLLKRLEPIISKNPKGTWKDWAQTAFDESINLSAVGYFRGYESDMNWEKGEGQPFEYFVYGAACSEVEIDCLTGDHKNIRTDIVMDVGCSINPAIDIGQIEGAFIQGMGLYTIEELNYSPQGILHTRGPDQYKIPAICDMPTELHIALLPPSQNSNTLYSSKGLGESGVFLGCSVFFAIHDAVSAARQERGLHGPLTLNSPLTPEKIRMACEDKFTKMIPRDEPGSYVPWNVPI
parameter-measured: Km (µM)

{"compound": "CN(C)CCNC(=O)c1cccc2cc3ccccc3nc12 [DACA]", "parameter-measured": "Km", "units": "µM", "reported-value": 7}
